# assay-comment: kanamycin survival loss of SKKanGAS strain – BacTiter-Glo luminescence, streptokinase expression inhibitor project, primary screen (AID 1662);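 note: strain carries kanamycin resistance gene driven by streptokinase promoter and grows in 40 µg/ml kanamycin; loss of luminescence reflects streptokinase promoter inhibition or plain growth inhibition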
# experimental-conditions: S. pyogenes SKKanGAS, kanamycin growth, 6 h, at 7.5 µM
The whole screen tested about 300,000 compounds, of which about 4,000 (1.3%) were called active.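 Rule for the calls: active = mean replicate score, as percent of positive control median, at least 50; inconclusive = mean below 50 but one replicate at or above 50; inactive = mean and every replicate below 50.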 Shown is part of a subset that was picked to be rich in actives.
The categories you may choose from are active, inactive

Use the examples below as a reference point.
[[record]]
compound = "Cc1cc(C)cc(C(=O)NC(CC(N)=O)c2ccc(N3CCC(N4CCCCC4)CC3)c([N+](=O)[O-])c2)c1 (stereo unspecified)"
label_class = "inactive"

[[record]]
compound = "Cc1occc(=O)c1OCc1c(Cl)cccc1Cl"
label_class = "inactive"

[[record]]
compound = "OC(CNCC1CCCO1)Cn1c2ccc(Br)cc2c2cc(Br)ccc21 (stereo unspecified)"
label_class = "active"

[[record]]
compound = "CC(C)Oc1ccc(S(=O)(=O)N2CCOCC2)cc1NC(=O)C1CSC2(C)CCC(=O)N12 (stereo unspecified)"
label_class = "inactive"


-- ask Which outcome was entered for the compound CCCCCC(O)(CCN1CCCCC1)c1ccccc1 (stereo unspecified) in this test?
-- reply inactive

-- ask Which outcome was entered for the compound CN(c1ccccc1)S(=O)(=O)c1cc(C(=O)OCC(=O)N2CCN(C(=O)c3ccco3)CC2)ccc1Cl in this test?
-- reply inactive

-- ask Which outcome was entered for the compound Cc1ccc(Oc2nc(-c3ccccn3)nc3ccccc23)cc1 in this test?
-- reply active

-- ask Which outcome was entered for the compound CCOC(=O)c1ccc(-c2ccc(C(=O)Nc3cccnc3)o2)cc1 in this test?
-- reply inactive

-- ask Which outcome was entered for the compound NC(=O)NC(=O)CSc1nc2cc([N+](=O)[O-])ccc2n1-c1cccc(C(F)(F)F)c1 in this test?
-- reply active

Origin of measurements: PubChem BioAssay AID1662
